# STUDY TARGET: 5-HT1A receptor
# PROTOCOL DESCRIPTION: In vitro receptor binding, 5-HT1A
READOUT LABEL: IC50 (nM)

molecule="CO[C@]1(c2ccc3c(c2)OCO3)CC[C@H](N2CCN(Cc3ccccc3)CC2)CC1 [Example 19]" measured=14
molecule="COc1ccc([C@]2(O)CC[C@@H](N3CCC(Cc4ccccc4)CC3)CC2)cc1 [Example 16]" measured=15.6
molecule="CC(c1ccccc1)N1CCN([C@H]2CC[C@](O)(c3ccc4c(c3)OCO4)CC2)CC1 (stereo partly shown) [Example 52]" measured=18.1
molecule="O[C@]1(c2ccc3c(c2)OCO3)CC[C@H](N2CCN(Cc3cccc(F)c3)CC2)CC1 [Example 22]" measured=13.4

---

# STUDY TARGET: 5-HT1A receptor
# PROTOCOL DESCRIPTION: In vitro receptor binding, 5-HT1A
pIC50: −log10 of the molar value.
READOUT LABEL: pIC50

Past entries and their recorded results:
smiles_input=COc1cccc(CC2CCN([C@H]3CC[C@](O)(c4ccc(F)cc4)CC3)CC2)c1 readout_label=pIC50 measured=7.50
smiles_input=COc1ccc(F)c(CN2CCN([C@H]3CC[C@](O)(c4ccc5c(c4)OCO5)CC3)CC2)c1 readout_label=pIC50 measured=9.12
smiles_input=COc1cccc(CN2CCN([C@H]3CC[C@](O)(c4ccc(C(F)(F)F)cc4)CC3)CC2)c1 readout_label=pIC50 measured=7.45
smiles_input=O[C@]1(c2ccc3c(c2)OCO3)CC[C@H](N2CCN(Cc3cc(Cl)ccc3Cl)CC2)CC1 readout_label=pIC50 measured=9.22
smiles_input=COc1cccc(CC2CCN([C@H]3CC[C@](O)(c4ccc5c(c4)OCO5)CC3)CC2)c1 readout_label=pIC50 measured=8.36

[a] O[C@]1(c2ccc(F)cc2)CC[C@H](N2CCN(Cc3ccccc3Cl)CC2)CC1
[b] O=[N+]([O-])c1ccccc1CN1CCN([C@H]2CC[C@](O)(c3ccc4c(c3)OCO4)CC2)CC1
From the items above, decide which of a and b has the lower pIC50 reading. Lab log: write the label of the selected item as the result. b

---

# STUDY TARGET: D2 receptor (Bos taurus)
# Construct: from tissue
# Sequence (P20288 whole entry): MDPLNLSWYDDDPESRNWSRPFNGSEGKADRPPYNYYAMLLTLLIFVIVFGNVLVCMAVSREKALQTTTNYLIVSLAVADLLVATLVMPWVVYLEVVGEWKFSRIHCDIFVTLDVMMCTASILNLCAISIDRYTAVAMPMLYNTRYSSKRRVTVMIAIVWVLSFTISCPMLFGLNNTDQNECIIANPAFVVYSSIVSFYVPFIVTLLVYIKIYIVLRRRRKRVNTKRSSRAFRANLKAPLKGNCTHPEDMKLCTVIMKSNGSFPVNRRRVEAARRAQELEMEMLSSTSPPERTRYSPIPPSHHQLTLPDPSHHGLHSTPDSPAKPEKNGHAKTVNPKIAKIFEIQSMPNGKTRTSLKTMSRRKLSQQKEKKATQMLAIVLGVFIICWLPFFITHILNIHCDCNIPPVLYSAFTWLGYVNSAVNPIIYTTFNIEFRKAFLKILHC
# PROTOCOL DESCRIPTION: In vitro receptor binding, D2
# CONDITION CONTEXT: in vitro; read-out: D2 receptor binding IC50
READOUT LABEL: IC50 (µM)

Please review the entries below; each comes with its answer.
smiles_input=CO[C@]1(c2ccc3c(c2)OCO3)CC[C@H](N2CCN(Cc3ccccc3)CC2)CC1 measured=1.35
smiles_input=Cc1ccccc1CN1CCN([C@H]2CC[C@](O)(c3ccc4c(c3)OCO4)CC2)CC1 measured=2.55
smiles_input=COc1cccc(CC2CCN([C@H]3CC[C@](OC)(c4ccc5c(c4)OCO5)CC3)CC2)c1 measured=49.2
smiles_input=O[C@]1(c2ccc3c(c2)OCO3)CC[C@H](N2CCN(Cc3ccccc3)CC2)CC1 measured=1.71

[1] O=[N+]([O-])c1ccccc1CN1CCN([C@H]2CC[C@](O)(c3ccc4c(c3)OCO4)CC2)CC1
[2] O[C@]1(c2ccc3c(c2)OCCO3)CC[C@H](N2CCN(Cc3ccccc3)CC2)CC1
[3] COc1ccc([C@]2(O)CC[C@@H](N3CCC(Cc4ccccc4)CC3)CC2)cc1
List by increasing IC50. Give me the labels in the order the question wants. 3, 1, 2
(3: 2.71 µM, 1: 7.08 µM, 2: 15.2 µM)
